Could you please report measured GI50 for the items listed next?
test system: MCF7; assay: NCI tumour cell line growth inhibition, 48 h
Where a name gives a salt, the structure may show the parent alone. Calls of active or inactive are those of the source. No stated cut-off is given here; in the data, active = GI50 up to about 1.1 µM and inactive = higher.

Before answering, review these 5 worked examples.
COC(=O)c1cc(S(=O)(=O)NC2=NNC(C)CN2)c(S)cc1Cl (centres undefined) | 42 µM (inactive)
CCOP(=O)(OCC)/C(=C/n1c(=S)[nH]c2ccccc21)C(=O)OC | > 100 µM (inactive)
O=C([O-])C(O)C(O)C(O)C(O)C(=O)O.[K+] (centres undefined) | > 100 µM (inactive)
COc1cc(OC)c2c(=O)cc(-c3ccccc3F)[nH]c2c1 | 54.5 µM (inactive)
CCCCNc1nc(O)c2[nH]cnc2n1 | > 100 µM (inactive)

// for each compound below, give its GI50
1. O=C(Nc1cc(Cl)c(I)c(Cl)c1)C(F)(F)F
2. CN(C)CCOc1ccc(/C(=C(/CCCl)c2ccccc2)c2ccccc2)cc1 [TOREMIFENE CITRATE]
3. CCOC(=O)N1CC2(C)C=CC1C(C(=O)OC)C2 (centres undefined)
4. CCOC(=O)c1nc2ccc(C(F)(F)F)cc2nc1Nc1ccc(F)cc1

1: 38.4 µM (inactive); 2: 1.58 µM (inactive); 3: > 100 µM (inactive); 4: > 100 µM (inactive)

###

system: NCI-H522; experiment: NCI tumour cell line growth inhibition, 48 h
Calls of active or inactive are those of the source. No stated cut-off is given here; in the data, active = GI50 up to about 1.1 µM and inactive = higher.
Could you please report measured GI50 for the items listed next?

Before answering, review these 3 worked examples.
Cc1ccc(NC(=O)CCc2nnc(S)[nH]2)cc1 | > 100 µM (inactive)
CN(C)c1ccc(-c2nc(-c3cc4c(ccc5ccccc54)oc3=O)cs2)cc1 | > 100 µM (inactive)
CN1CN(c2ccccc2)C2(CCN(CCc3csc4ccccc34)CC2)C1=O | 15.9 µM (inactive)

// for each molecule below, give its GI50
1. CCN(CC)Cc1ccccc1CC(=O)N1c2ccccc2C(=O)Nc2cccnc21
2. C[C@@H]1C(O)CC[C@H](C)C12CC=CC2=O (stereo partly specified)
3. O=C(Nc1sccc1S(=O)(=O)c1ccc(Cl)cc1)c1ccccc1
4. COc1cc(C2SCC(=O)N2c2cccc(Cl)c2)cc(OC)c1OC (stereo unspecified)
5. COc1ccc(CNc2nc(NCc3ccc(OC)cc3)nc(Nc3ccccc3)n2)cc1
6. CCOC(=O)CCN1C(=O)C(=O)N(c2ccc(OC)cc2)C1=S
7. CCOC(=O)c1cccc(/N=N/c2ncc(/C=C/C(=O)OC)[nH]2)c1
8. S=C=NC1CCC(c2cc3ccccc3s2)(N2CCCCC2)CC1 (stereo unspecified)

> 100 µM (inactive)
> 100 µM (inactive)
> 100 µM (inactive)
21.2 µM (inactive)
5.73 µM (inactive)
14.8 µM (inactive)
15.7 µM (inactive)
1.63 µM (inactive)

###

tested on: IGROV-1; experiment: NCI tumour cell line growth inhibition, 48 h
Calls of active or inactive are those of the source. Cut-off read from the data, not from the text of the source: active = GI50 up to about 1.1 µM and inactive = higher.
Could you please report measured GI50 for the items listed next?

N#CC(c1nc2ccccc2s1)c1ncnc(Cl)c1[N+](=O)[O-] (centres undefined) | 14.6 µM (inactive)
COc1cc(-c2c3c(cc4c2OCO4)[C@@H](Nc2ccc4c(c2)Cc2cc(N[C@@H]5c6cc7c(cc6C(c6cc(OC)c(O)c(OC)c6)[C@H]6C(=O)OC[C@H]56)OCO7)ccc2-4)[C@H]2COC(=O)[C@@H]2C3)cc(OC)c1O (some centres undefined) | 1.56 µM (inactive)
CN1C(=O)c2ccc3ccccc3c2C1=O | > 100 µM (inactive)

Please give the measured GI50 for this molecule: `Cc1ccc(S(=O)(=O)N/N=c2\c(C)c(C3=NS(=O)(=O)c4cc(S(N)(=O)=O)c(Cl)cc4N3)oc3c(Cl)cc(Cl)cc23)cc1`
> 100 µM (inactive)

###

system: NCI-H460; experiment: NCI tumour cell line growth inhibition, 48 h
Active and inactive are the calls of the source. No stated cut-off is given here; in the data, active = GI50 up to about 1.1 µM and inactive = higher.
Entry note: the call must match one of yes (active), no (inactive)

Below are worked cases with known answers.
Clc1cccc(C2N3CCCCC3[C@@H]3c4[nH]c5ccccc5c4CCN23)c1 (stereo not given in full) | no
CC(C)(C)O/N=C/c1cc(NC(=S)c2ccccc2)ccc1Cl | no
COc1ccc(CC2NC(=O)/C=C/CC(C(C)C3OC3c3ccccc3)OC(=O)C(CC(C)C)OC(=O)C(C)CNC2=O)cc1Cl (stereo not given) | yes
O=C(O)c1ccc(Nc2nc3cc(C(F)(F)F)ccc3n3cccc23)cc1 | no
COc1c2cc(C(C)(C)C)cc1Cc1cccc(c1OCc1cccc([N+](=O)[O-])c1)Cc1cc(C(C)(C)C)cc(c1OC)Cc1cccc(c1OCc1cccc([N+](=O)[O-])c1)Cc1cc(C(C)(C)C)cc(c1OC)Cc1cccc(c1OCc1cccc([N+](=O)[O-])c1)C2 | no
CC(=O)N/C(=C\c1ccc(/C=C(\NC(C)=O)c2nc3cc(Cl)ccc3[nH]2)cc1)c1nc2ccccc2[nH]1 | no
CCOC(=O)C1=C(C)N(Cc2ccccc2)C(C)=C(C(=O)OCC)C1c1ccccc1O | no
c1ccc2c(c1)[nH]c1c2nc2ncccn21 | no

Assay result, entry C/C=C/CC(C)[C@@H](O)[C@H](NC)C(=O)O (stereo not given in full) — outcome?
no

Assay result, entry `CCO/N=C(/N)c1ncn(Cc2ccccc2)c1NCC(OCC)OCC` — outcome?
no

Assay result, entry `COc1cc(/C=C2\N=C(C)N(n3c(-c4ccccc4)nc4ccccc4c3=O)C2=O)cc(OC)c1OC` — outcome?
no

Assay result, entry `O=c1[nH]c2cc(C(F)(F)F)ccc2nc1Cc1ccccc1` — outcome?
no

Assay result, entry `Cc1c(C)c(S(=O)(=O)N(CCCN)OCCCN)c(C)c2c1OC(C)(C)CC2` — outcome?
no

Assay result, entry COC(=O)c1cc(S(=O)(=O)NC2=NNC(C)CN2)c(S)cc1Cl (stereo not given) — outcome?
no

Assay result, entry O=C(CC(=O)N1N=C(N2c3ccccc3Sc3ccccc32)CC1c1ccccc1)Nc1ccc(Cl)cc1 (stereo not given) — outcome?
no

Assay result, entry `c1ccc(/N=c2/[nH]c3ccccc3s/c2=N/c2ccccc2)cc1` — outcome?
no

###

test system: OVCAR-4; assay: NCI tumour cell line growth inhibition, 48 h
Calls of active or inactive are those of the source. Rule as the data show it: active = GI50 up to about 1.1 µM and inactive = higher.
Entry note: the call must match one of active, inactive

Below are worked cases with known answers.
CN1C(=O)c2ccc3ccccc3c2C1=O | inactive
COC(=O)C(CCSC)NC(=O)CSc1nnc(COc2ccc(Cl)cc2)n1-c1ccccc1 (stereo unspecified) | inactive
OCC(O)C(O)C(C=NNc1ncnc2ccc(Br)cc12)=NNc1ncnc2ccc(Br)cc12 (stereo unspecified) | active
COc1cc(Br)c(/C=N\c2cccc3cc(OC)c(OC)cc23)cc1OC | inactive
OC12c3ccccc3C1CCCCCCCCCC21OCCCO1 (stereo unspecified) | inactive

Continue with the next compound.
Assay result, entry `O=C(O)Cc1nc[nH]c1C(=O)O` — outcome?
inactive

###

system: SF-539; test: NCI tumour cell line growth inhibition, 48 h
Active and inactive are the calls of the source. Rule as the data show it: active = GI50 up to about 1.1 µM and inactive = higher.
measurement-kind: GI50

Before answering, review these 2 worked examples.
Cc1cn(C2CC(O)C(Cn3cc(Cn4ncc(=O)[nH]c4=O)nn3)O2)c(=O)[nH]c1=O (stereo not drawn) | > 100 µM (inactive)
CCN(CC)CCC(=O)c1ccccc1 | 24.8 µM (inactive)

Please give the measured GI50 for this compound: CC(C)(C)C1CCC2c3c([nH]c4ccccc34)C3C(=O)N(c4ccccc4[N+](=O)[O-])C(=O)C3C2C1 (stereo not drawn)
21.5 µM (inactive)

###

test system: COLO 205; assay: NCI tumour cell line growth inhibition, 48 h
Calls of active or inactive are those of the source. Rule as the data show it: active = GI50 up to about 1.1 µM and inactive = higher. Residues, ends and D or L forms follow the SMILES beside them. *: point of attachment. Boc = CC(C)(C)OC(=O)*; OBn = c1ccc(CO*)cc1; Bn = c1ccc(C*)cc1
Entry note: the call must match one of active, inactive

Below are worked cases with known answers.
CC1(C)C=C(/C=N/Nc2ccccc2)C(C#N)=C(O)C1(C#N)C#N | inactive
Cc1c2cc[n+](C)cc2c(C)c2c1sc1ccccc12 | active
CC(=O)NC(=N/N=C1/C(=O)Nc2ccc(C)cc21)NC(C)=O | inactive
NC(=O)N=C(NCc1ccccc1)NCc1ccccc1 | inactive
O=CC(I)=C(c1ccccc1)c1ccccc1 | inactive

Assay result, entry `CCCCCCCCCCCCCCCCNc1cccc2ccccc12` — outcome?
inactive

Assay result, entry `C=CCC1(Sc2ccccn2)Sc2ccc3ccccc3c2-c2c(ccc3ccccc23)S1` — outcome?
inactive

Assay result, entry CC(C)CC(NC(=O)C(Cc1ccccc1)NC(=O)C(COCc1ccccc1)NC(=O)OC(C)(C)C)C(=O)OCc1ccccc1 (stereo not drawn) (Boc-Ser(Bn)-Phe-Leu-OBn; configuration not given here) — outcome?
inactive

Assay result, entry `CCO[C@@H]1OC(=O)[C@@](C)(C(C)=O)[C@@H]1C` — outcome?
inactive

Assay result, entry `CCOC(=O)/C(=C\c1ccccc1)C(=O)CCN1CCOCC1` — outcome?
inactive
